These entries and their values trace back to PubChem BioAssay (NCI).

System: SK-MEL-5 melanoma
Assay: NCI tumour cell line growth inhibition, 48 h
Task for the reader: assign each of the following compounds its reported TGI.

Recorded TGI, per entry:
# COMPOUND, TARGET_ENTITY, TGI
records = [
    ("Cc1ccc(C(=O)O)c(/C=C2\\Cc3cc(C)cc(C)c3C2=O)c1", "SK-MEL-5 melanoma", "> 100 µM"),
    ("CCOC(=O)C1=C(C)NC(C)=C(C(=O)OCCNC(=O)c2ccc(N=[N+]=[N-])cc2)C1c1ccccc1C(F)(F)F (stereo unspecified)", "SK-MEL-5 melanoma", "12.7 µM"),
    ("O=[N+]([O-])c1cnc(N(CCO)CCO)s1", "SK-MEL-5 melanoma", "> 100 µM"),
]

Would you mind listing TGI for each of the following compounds?
1. CC(=O)n1nnc2ccc([N+](=O)[O-])cc21
2. O=C1C(Cl)=C(Cl)C(=O)N1c1ccccc1Cl
3. CC1NC(C(=O)O)Cc2cc(O)c(O)cc21 (stereo unspecified)
4. CN1CN(c2ccccc2)C2(CCN(C3Nc4ccccc4O3)CC2)C1=O (stereo unspecified)
5. CCCCCCCCCCCCNC(=O)N[C@H](C(=O)N[C@H]1/C=C/CCNC(=O)/C=C/[C@H](C)NC1=O)C(C)C

Outgoing:
1: > 100 µM; 2: > 100 µM; 3: > 100 µM; 4: 32 µM; 5: 0.39 µM

Would you mind listing TGI for each of the following compounds?
1. Cc1n[nH]c(=O)n1Nc1ccccc1
2. NC(CP(=O)(O)O)C(=O)O (stereo unspecified)
3. c1ccc(COCC[P+](c2ccccc2)(c2ccccc2)c2ccccc2)cc1

Outgoing:
["> 100 µM", "> 100 µM", "1.61 µM"]

Consider the following items and state reported TGI for each.
1. CC[O-].CC[O-].COc1ccc(C(=O)[CH-]C(C)=O)cc1OC.COc1ccc(C(=O)[CH-]C(C)=O)cc1OC.[Ti+4]
2. COc1ccc(C2CC(c3ccc(NS(=O)(=O)c4cc([N+](=O)[O-])ccc4C)cc3)=NN2S(=O)(=O)c2cc([N+](=O)[O-])ccc2C)cc1 (stereo unspecified)
3. CN1C(=S)CSc2ccccc21
4. O=C(CC(Cc1ccccc1)c1ccc(Oc2ccccc2)cc1)Nc1cccc(Cl)c1 (stereo unspecified)
5. CN1C(=O)N/C(=C\c2ccc(S(=O)(=O)N/N=C/c3ccccc3)cc2)C1=O

Outgoing:
1: > 100 µM; 2: > 100 µM; 3: > 100 µM; 4: 26.8 µM; 5: 27.7 µM
